Test: Selectivity index, ratio of CC50 for cytotoxicity against human MT4 cells assessed as reduction in cell viability to EC50 for antiviral activity against NNRTI-resistant HIV-1 harboring F227L/V106A double mutant infected in human MT4 cells
Format: toxicity, cell-based
Details: read-out: Ratio CC50/EC50
Could you label it 1 if measured selectivity ratio is 200 or higher, and -1 otherwise?

Could you please find out whether Cc1cc(C#N)cc(C)c1Oc1nc(NC2CCN(c3ccc(N)cc3)CC2)ncc1C(N)=O has selectivity ratio that meets 200 or exceeds it? -1

Hi, just wondering whether Cc1cc(C#N)cc(C)c1Oc1nc(NC2CCN(Cc3ccc(S(N)(=O)=O)cc3)CC2)ncc1C(N)=O shows selectivity ratio of 200 or higher. 1

For this compound, is measured selectivity ratio 200 or higher? Cc1cc(C#N)cc(C)c1Oc1nc(NC2CCN(c3ccc(NS(=O)(=O)C4CC4)cc3)CC2)ncc1C(N)=O 1

Record Cc1cc(C#N)cc(C)c1Oc1nc(Nc2ccc(C#N)c(F)c2)ncc1C(N)=O ; criterion: selectivity ratio no lower than 200. Met? -1

Check this compound for selectivity ratio at or above 200: Cc1cc(C#N)cc(C)c1Oc1nc(NC2CCN(c3ccc(NS(N)(=O)=O)cc3)CC2)ncc1C(N)=O 1

Item Cc1cc(C#N)cc(C)c1Oc1nc(Nc2ccc(C#N)cc2)ncc1C(N)=O with selectivity ratio of 200 or above? -1

Dear colleague, could you confirm whether Cc1cc(C#N)cc(C)c1Oc1nc(NC2CCN(Cc3ccc(B(O)O)cc3)CC2)ncc1C(N)=O has selectivity ratio at or above 200? 1

Quick check, selectivity ratio >= 200? Cc1cc(C#N)cc(C)c1Oc1nc(NC2CCN(c3ccc(NS(C)(=O)=O)cc3)CC2)ncc1C(N)=O 1

Hi, just wondering whether Cc1cc(C#N)cc(C)c1Oc1nc(NC2CCN(Cc3ccc(S(C)(=O)=O)cc3)CC2)ncc1C(N)=O shows selectivity ratio of 200 or higher. 1

Reported selectivity ratio at or above 200? Cc1cc(C#N)cc(C)c1Oc1nc(NC2CCN(c3ccc(NS(=O)(=O)N(C)C)cc3)CC2)ncc1C(N)=O 1
